# System: Candida albicans
# Experiment notes: Antimicrobial activity against Candida albicans after 24 hrs by liquid dilution method
# Format: functional
Reported metric: MIC (µg/mL)

* c1ccc2c(c1)cc1c3ccccc3nc(-c3ccc(-c4ccncc4)cc3)n21 | 30
* c1cc(-c2nc3ccccc3c3cc4ccccc4n23)cc(-c2nc3ccccc3c3cc4ccccc4n23)c1 | 30
* c1ccc2cc(-c3nc4ccccc4c4cc5ccccc5n34)c(-c3nc4ccccc4c4cc5ccccc5n34)cc2c1 | 25
* CC(=O)N1CCN(c2ccc(OCC3COC(Cn4ccnc4)(c4ccc(Cl)cc4Cl)O3)cc2)CC1 (centres undefined) | 25

* * *

# Tested on: Candida albicans
# Experiment notes: Antimicrobial activity against Candida albicans at 1000 ug after 72 hrs by cup plate method
# Type: functional
# Condition context: read-out: DIZ
Reported metric: zone of inhibition at 1000 µg/disc (mm)

• c1ccc(-c2nc3ccccc3c3cc4ccccc4n23)c(-c2nc3ccccc3c3cc4ccccc4n23)c1 = 13
• c1ccc2c(c1)cc1c3ccccc3nc(-c3ccc(-c4nc5ccccc5c5cc6ccccc6n45)cc3)n21 = 21
• CC(=O)N1CCN(c2ccc(OCC3COC(Cn4ccnc4)(c4ccc(Cl)cc4Cl)O3)cc2)CC1 (centres undefined) = 40
• c1cc(-c2nc3ccccc3c3cc4ccccc4n23)cc(-c2nc3ccccc3c3cc4ccccc4n23)c1 = 15

* * *

# Test system: Escherichia coli
# Experiment notes: Antimicrobial activity against Escherichia coli after 24 hrs by liquid dilution method
# Format: functional
Reported metric: MIC (µg/mL)

- COc1ccc2[nH]cc(-c3nc4ccccc4c4cc5ccccc5n34)c2c1: 5
- Cc1ccc2[nH]cc(-c3nc4ccccc4c4cc5ccccc5n34)c2c1: 2.5
- c1ccc2c(c1)cc1c3ccccc3nc(-c3c[nH]c4ccccc34)n21: 2.5
- CC1(C)S[C@@H]2[C@H](NC(=O)[C@H](N)c3ccccc3)C(=O)N2[C@H]1C(=O)O: 5

* * *

Attribute: zone of inhibition at 1000 µg/disc
# System: Escherichia coli
# Experiment notes: Antimicrobial activity against Escherichia coli at 1000 ug after 24 hrs by cup plate method
# Format: functional
# Condition context: read-out: DIZ
Reported metric: zone of inhibition at 1000 µg/disc (mm)

- c1ccc2c(c1)cc1c3ccccc3nc(-c3ccc(Oc4ccc(-c5nc6ccccc6c6cc7ccccc7n56)cc4)cc3)n21: 14
- c1ccc2c(c1)cc1c3ccccc3nc(-c3ccc(-c4ccncc4)cc3)n21: 35
- c1ccc2c(c1)cc1c3ccccc3nc(-c3c[nH]c4ccccc34)n21: 52
- CC1(C)S[C@@H]2[C@H](NC(=O)[C@H](N)c3ccccc3)C(=O)N2[C@H]1C(=O)O: 40
- COc1ccc2[nH]cc(-c3nc4ccccc4c4cc5ccccc5n34)c2c1: 50
- c1ccc2c(c1)cc1c3ccccc3nc(-c3csc4ccccc34)n21: 48
- c1cc(-c2nc3ccccc3c3cc4ccccc4n23)cc(-c2nc3ccccc3c3cc4ccccc4n23)c1: 20
- c1ccc(-c2nc3ccccc3c3cc4ccccc4n23)c(-c2nc3ccccc3c3cc4ccccc4n23)c1: 16
